Provenance of the data: patent US4021421A

Period of sleep, min. ± standard error for assorted compounds
Tested on: hexobarbital oxidase
Run description: in vivo hexobarbital oxidase activity: hexobarbital sleeping time in rats (enzyme induction)
Parameters: species or system male Wistar rats
Particulars: 40 mg./kg. oral; hexobarbital sodium 40 mg./kg. i.v. 24 hours later; control 28.50 ± 3.12 min.
Reported metric: Period of sleep, min. ± standard error (min)

* CN1C(=O)CN(N=Cc2ccccc2)C(c2ccccc2)c2cc(Cl)ccc21 (stereo not shown) | 11.96
* CN1C(=O)CN(N=Cc2ccc(O)cc2)C(c2ccccc2)c2cc(Cl)ccc21 (stereo not shown) | 16.82
* CN1C(=O)CN(NC(=O)CCl)C(c2ccccc2)c2cc(Cl)ccc21 (stereo not shown) | 19.10
* CC(=O)NN1CC(=O)N(C)c2ccc(Cl)cc2C1c1ccccc1 (stereo not shown) | 20.24
* CN1C(=O)CN(N=O)C(c2ccccc2)c2cc(Cl)ccc21 (stereo not shown) | 16.53
* O=NN1CC(=O)Nc2ccc([N+](=O)[O-])cc2C1c1ccccc1 (stereo not shown) | 13.97
* CN1C(=O)CN(N)C(c2ccccc2)c2cc(Cl)ccc21 (stereo not shown) | 18.57
